Test system PfA-M17 (Plasmodium falciparum, UniProt Q8IL11), Ki listed for each of the compounds.
Reported Endpoint: Ki

* O=C(O)c1ccc(-c2nc(-c3ccccc3)c(-c3ccccc3)[nH]2)cc1 [Compound 4] | 20 to 40 µM
* COc1cc(-c2nc(-c3ccccc3)c(-c3ccccc3)[nH]2)ccc1OCC(N)=O [Compound 2] | > 500 µM
* CN(CCO)c1ccc(-c2nc(-c3ccccc3)c(-c3ccccc3)[nH]2)cc1 [Compound 1] | > 500 µM
